So I've got a bunch of sequences here, and I need their z-score values.
experiment: Components of the Cytosolic LPS Sensing Pathway: Gene Identification via Genome-wide siRNA Screen; details: RAW264.7 macrophages, IL-1a HTRF, actives lie on both sides, screened at 100 nM (by protocol), cells primed 5 h with Pam3CSK4 first;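 also: robust z of the log signal after scaling to non-targeting control siRNA wells of the plate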
Among all 53,000 sequences or so, about 3,700 (7%) were called active. This is one part of a sample in which actives are shown more often than they occur.
Give only the figure.

-- ask Record request: z-score value, item GUUAUCAGGAAGGAAAGCCTT against Sdhaf4
-- reply 0.248

-- ask Consider next the sequence GGCUCUAGAAGCGAGAAUCTT against Six6 in the same way.
-- reply -0.234

-- ask Consider next the sequence GGGUCCCAAACAAUAACUUTT against Aebp1 in the same way.
-- reply 1.7

-- ask Consider next the sequence GACAGCAACGUGAAAUUAGTT against Xlr in the same way.
-- reply -0.828

-- ask Consider next the sequence GGGCAGAUCCUAAUAAGCATT against Irs3 in the same way.
-- reply -1.21

-- ask Consider next the sequence GGUAUUAGAAAUCCUGAUCTT against Pias2 in the same way.
-- reply -0.716

-- ask Consider next the sequence GCCCUCCAACCUCGAUAACTT against Shisa7 in the same way.
-- reply 2.9

-- ask Consider next the sequence GCUUGCUGACCUGAAGUGATT against Krt17 in the same way.
-- reply 0.262

-- ask Consider next the sequence GGCCUGUUUUUGCAUUUUATT against 9030612E09Rik in the same way.
-- reply -0.0316

-- ask Consider next the sequence GGAGUCCGCUCAGAAUUUGTT against Lhpp in the same way.
-- reply -0.194

-- ask Consider next the sequence GCUCAGAGACAAGCAACUGTT against Kcnk7 in the same way.
-- reply 0.247

-- ask Consider next the sequence CCUUAUGAGUCUUACGACUTT against Zfp326 in the same way.
-- reply 1.15

-- ask Consider next the sequence GGAAUCUGUCAUGUGAAUATT against Slc1a5 in the same way.
-- reply -0.0766

-- ask Consider next the sequence CCUGAAAGAUAACAAGUGGTT against Rnls in the same way.
-- reply 0.0112

-- ask Consider next the sequence GGCUACCUACAGCACCAACTT against Esyt1 in the same way.
-- reply -1.58

-- ask Consider next the sequence GCACGGAUUAAUGUGAUGATT against Ilk in the same way.
-- reply 0.406

-- ask Consider next the sequence GGACUAAAUAGGUUUACCATT against Alx1 in the same way.
-- reply 1.26

-- ask Consider next the sequence GGUGGAAGCACUCAAUAAGTT against Pik3cb in the same way.
-- reply -1.24

-- ask Consider next the sequence GGUCAUUCAGCUGGAAGAUTT against Zfp143 in the same way.
-- reply -1.07

-- ask Consider next the sequence GGGCAUUUGGCCUUUCUCATT against Cpsf4 in the same way.
-- reply -0.905

-- ask Consider next the sequence GCUUUAGUGACGGCUCGAATT against Zscan2 in the same way.
-- reply 2.07

-- ask Consider next the sequence GCGAGAUGGAAGGAUCUUGTT against Anapc13 in the same way.
-- reply 5.28

-- ask Consider next the sequence GGCAGUUUGACAACUUUAATT against Fibp in the same way.
-- reply -0.653

-- ask Consider next the sequence GGCACAACUGAUUUUGAAATT against Ifngr2 in the same way.
-- reply -0.362

-- ask Consider next the sequence CGAGAAGAUAUUUAAAGAGTT against Myo10 in the same way.
-- reply -0.045

-- ask Consider next the sequence GCCACACGACAUGUGAUUCTT against C2cd4c in the same way.
-- reply -0.0403

-- ask Consider next the sequence CCUUAUUUGUCCAUAAAAGTT against Pkdrej in the same way.
-- reply 2.43

-- ask Consider next the sequence GGAGUGAUAGUCAUCAAUGTT against Olfr357 in the same way.
-- reply -0.464

-- ask Consider next the sequence GGUCGAACUUCUGUGCCAUTT against Slc39a8 in the same way.
-- reply 2.39

-- ask Consider next the sequence GGUACUUAUGUGGAUUGGATT against Rint1 in the same way.
-- reply -0.272

-- ask Consider next the sequence GGGUUGAUCCCUUUGAUUCTT against Pld4 in the same way.
-- reply -0.268

-- ask Consider next the sequence GGUGUAUACUGUGAAAUCATT against Notch1 in the same way.
-- reply -0.319

-- ask Consider next the sequence GUCCUGGAAGAAAUGAGAATT against Ifna4 in the same way.
-- reply 0.781

-- ask Consider next the sequence GGUGCUGGACAAAUUGAGATT against Cgas in the same way.
-- reply -0.189

-- ask Consider next the sequence GGAAGUUACAGAUGUGGCUTT against Nog in the same way.
-- reply -0.879

-- ask Consider next the sequence GGAACUGCUUACGAAAUACTT against Lama4 in the same way.
-- reply -2.33

-- ask Consider next the sequence GCACUGUGAAUUUGUCAUUTT against Umps in the same way.
-- reply 1.22

-- ask Consider next the sequence CGCCAUGUUUAACAAAUUGTT against Limk2 in the same way.
-- reply -2.22

-- ask Consider next the sequence GGUGGUGAGCAUCUACUAUTT against Alox5 in the same way.
-- reply 0.565

-- ask Consider next the sequence CGUCAAAGGAGACAGCUUUTT against Rbm15b in the same way.
-- reply 1.56

-- ask Consider next the sequence GGUUUUAGGACACCUGGUUTT against Gys1 in the same way.
-- reply 2.13

-- ask Consider next the sequence GGAGGAAGAGAUUUUAAACTT against Rps8 in the same way.
-- reply 0.158

-- ask Consider next the sequence GGAAAGAUUCAAAGAACCUTT against Rpia in the same way.
-- reply 1.45

-- ask Consider next the sequence GGCGGAUCUCUUGAGUGUUTT against Glyctk in the same way.
-- reply 0.213

-- ask Consider next the sequence CCGUCUUCACCUGAUACAGTT against Ube2d2b in the same way.
-- reply 0.501

-- ask Consider next the sequence GGGAUCCCGCAAAAUCAGATT against Osm in the same way.
-- reply 0.63

-- ask Consider next the sequence GGUAAUUGAGUUUGACGAUTT against Ptprf in the same way.
-- reply 0.585

-- ask Consider next the sequence GCCCACCUAAACCAACAGUTT against Dap in the same way.
-- reply 0.989

-- ask Consider next the sequence GGAGUGCAGUACAAAGGACTT against Ahsa1 in the same way.
-- reply 0.872

-- ask Consider next the sequence GGACGAGCUGUAUUUGAAUTT against Gsk3a in the same way.
-- reply -0.663
